target: EGFR (Rattus norvegicus, UniProt G3V6K6); construct: Receptor source was rat liver membranes; tissue NovaScreen BioSciences; host or cells: rat liver membranes; assay: Inhibition of [125I]EGF binding to EGFR, radioligand filtration assay (NovaScreen); details: 25 μM compound; [125I]EGF 0.36 nM, rat liver membranes; read-out: inhibition of binding of EGF to EGFR
Sequence (G3V6K6 25-1209): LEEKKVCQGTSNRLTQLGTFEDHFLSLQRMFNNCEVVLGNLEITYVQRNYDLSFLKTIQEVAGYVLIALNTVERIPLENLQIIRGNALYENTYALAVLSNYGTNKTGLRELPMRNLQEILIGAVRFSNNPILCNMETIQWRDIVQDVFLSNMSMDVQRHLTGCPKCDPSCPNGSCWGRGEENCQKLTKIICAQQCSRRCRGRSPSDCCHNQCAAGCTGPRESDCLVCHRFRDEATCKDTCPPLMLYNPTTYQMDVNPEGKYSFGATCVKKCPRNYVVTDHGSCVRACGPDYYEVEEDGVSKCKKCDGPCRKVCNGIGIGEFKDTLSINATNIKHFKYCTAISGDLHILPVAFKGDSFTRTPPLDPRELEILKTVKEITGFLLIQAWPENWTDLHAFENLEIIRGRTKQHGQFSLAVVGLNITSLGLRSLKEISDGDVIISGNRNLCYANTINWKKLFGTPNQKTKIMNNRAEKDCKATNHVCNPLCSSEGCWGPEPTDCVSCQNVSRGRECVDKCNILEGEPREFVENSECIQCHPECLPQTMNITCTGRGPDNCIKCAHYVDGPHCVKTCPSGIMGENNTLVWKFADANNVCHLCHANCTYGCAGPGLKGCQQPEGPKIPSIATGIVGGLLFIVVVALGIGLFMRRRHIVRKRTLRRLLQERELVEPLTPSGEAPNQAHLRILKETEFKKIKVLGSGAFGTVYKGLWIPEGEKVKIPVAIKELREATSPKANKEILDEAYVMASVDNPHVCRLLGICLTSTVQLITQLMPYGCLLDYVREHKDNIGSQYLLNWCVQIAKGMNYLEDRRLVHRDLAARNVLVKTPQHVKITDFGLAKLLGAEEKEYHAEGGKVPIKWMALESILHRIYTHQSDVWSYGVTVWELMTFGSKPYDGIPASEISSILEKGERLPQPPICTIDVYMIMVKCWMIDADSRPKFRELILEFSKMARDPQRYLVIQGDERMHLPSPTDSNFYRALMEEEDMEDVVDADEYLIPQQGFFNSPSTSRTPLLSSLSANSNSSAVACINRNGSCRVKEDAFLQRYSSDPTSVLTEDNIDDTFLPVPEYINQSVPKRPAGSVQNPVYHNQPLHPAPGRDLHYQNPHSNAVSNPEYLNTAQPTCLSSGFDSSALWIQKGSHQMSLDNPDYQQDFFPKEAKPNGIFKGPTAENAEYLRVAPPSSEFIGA
result-type: inhibition at 25 µM (%)
Numeric answer only, unit % assumed.

>>> quantitative_result("Cc1ccc(OCC(=O)Nc2ccc(O)cc2C(=O)O)c(C)c1")
59.6
>>> quantitative_result("Cc1cc(C)c(OCC(=O)Nc2cc(O)ccc2C(=O)O)cc1C")
39
>>> quantitative_result("O=C(O)CCc1ccc(-c2ccc(Cl)cc2)n1CCC(=O)O")
39
>>> quantitative_result("CN(C1=NC(=O)C(CC(=O)O)S1)c1ccc(O)cc1 (stereo not shown)")
70.7
>>> quantitative_result("O=C(O)C[C@H](NCc1cccnc1)C(=O)Nc1ccc(Cl)cc1")
75.7
>>> quantitative_result("CC(Oc1ccc(C(=O)NCCc2ccccc2)cc1)C(=O)O (stereo not shown)")
43
>>> quantitative_result("COc1cccc(OCC(=O)Nc2ccccc2C(=O)O)c1")
38
>>> quantitative_result("CC1=C(C(=O)Nc2cccc(C)c2)C(c2ccc(O)cc2)NC(=O)N1 (stereo not shown)")
39.4
>>> quantitative_result("O=C(CC(NCC1CCCO1)C(=O)O)Nc1cccc(Cl)c1 (stereo not shown)")
32

Query compound follows.
IN: Query for EGFR (Rattus norvegicus, UniProt G3V6K6): what inhibition at 25 µM does the record show for O=C(O)Cn1nnc(-c2ccc(OCc3ccccc3)cc2)n1 ?
OUT: 47.8

* * *

target: EGFR (Rattus norvegicus); construct: Receptor source was rat liver membranes; tissue NovaScreen BioSciences; host or cells: rat liver membranes; assay: Inhibition of [125I]EGF binding to EGFR, radioligand filtration assay (NovaScreen); conditions: inhibition of [125I]EGF binding at 25 μM; rat liver membranes; read-out: EGFR INHIBITION
Threshold rule: inhibition at 25 µM greater than or equal to 40% is T; below that, F.

>>> class("O=C(CSc1ccccc1)Nc1ccc(O)c(C(=O)O)c1 [AD4-1178]")
"F"

IN: Is inhibition at 25 µM for CCOc1cc(C=C2C(=O)NC(=O)NC2=O)ccc1CC(=O)O [AD4-1121] at or above 40%?
OUT: F

IN: Field entry: O=C(O)CC(NCc1ccco1)C(=O)Nc1ccc2ccccc2c1 (stereo not shown) [AD4-1149]
OUT: F

* * *

Molecular target: EGFR (Rattus norvegicus)
Construct: Receptor source was rat liver membranes; tissue NovaScreen BioSciences; host or cells: rat liver membranes
Test: Inhibition of [125I]EGF binding to EGFR, radioligand filtration assay (NovaScreen)
Details: inhibition of [125I]EGF binding at 25 μM; rat liver membranes; read-out: EGFR INHIBITION
Description: Identified compounds, representing various pharmacaphore models, were tested for ability to inhibit EGFR at 25 μM. AD4-compounds were identified using pharmacophore models (see Example 4) and then were docked with the binding site of EGFR (SEQ ID NO: 1) that is recognized by defined CDRs of cetuximab. The inhibition of epidermal growth factor binding by AD4-compounds was then determined (NovaScreen BioSciences, Hanover, Md.). Inhibition of EGF binding was determined at 25 μM concentration. […]
result-type: inhibition at 25 µM (%)
Just the number please, in %, no unit attached.

>>> quantitative_result("CCOc1ccc(/C(C)=N/N=C2\\NC(=O)C(CC(=O)O)S2)cc1 (stereo not shown)")
37.8
>>> quantitative_result("Cc1ccc(C(=O)Nc2ccc(C(=O)NCCCC(=O)O)cc2)o1")
39
>>> quantitative_result("Cc1ccc(OCC(=O)Nc2ccc(O)cc2C(=O)O)c(C)c1")
59.6
>>> quantitative_result("Cc1cc(C)c(OCC(=O)Nc2cc(O)ccc2C(=O)O)cc1C")
38.6
>>> quantitative_result("NC(=O)C1CCN(C2CC(=O)N(c3ccc(C(=O)O)cc3)C2=O)CC1 (stereo not shown)")
33.1

IN: Which measured inhibition at 25 µM belongs to O=C(O)Cn1nnc(-c2ccc(OCc3ccccc3)cc2)n1 , tested on EGFR (Rattus norvegicus)?
OUT: 47.8

IN: And for O=C(O)CCCN1C(=O)/C(=C/c2cccc(O)c2)SC1=S ?
OUT: 36.5

IN: Continue with COc1cccc(OCC(=O)Nc2ccccc2C(=O)O)c1
OUT: 37.7

IN: Proceed to O=C(O)COc1ccc(C(=O)NCc2ccccc2)cc1
OUT: 43.1

IN: Please do the same for COC(=O)c1cc(NC(=O)CSc2nc(C)cc(=O)[nH]2)cc(C(=O)OC)c1 as well.
OUT: 43.4

IN: Would you mind doing O=C(O)CCc1ccc(-c2ccc(Cl)cc2)n1CCC(=O)O as well?
OUT: 38.6

IN: Also O=C(CC(NCC1CCCO1)C(=O)O)Nc1cccc(Cl)c1 (stereo not shown) ?
OUT: 31.7

IN: Can you handle NC(=O)CCC(Nc1ncnc2ccccc12)C(=O)O (stereo not shown) next?
OUT: 43.2

IN: Input CN(Cc1ccccc1)S(=O)(=O)c1ccc(O)c(C(=O)O)c1
OUT: 34

* * *

Below, each entry is listed with its recorded inhibition at 25 µM.
target: EGFR (Rattus norvegicus, UniProt G3V6K6); construct: Receptor source was rat liver membranes; tissue NovaScreen BioSciences; host or cells: rat liver membranes; assay: Inhibition of [125I]EGF binding to EGFR, radioligand filtration assay (NovaScreen); conditions: inhibition of [125I]EGF binding at 25 μM; rat liver membranes; read-out: EGFR INHIBITION
I only need the number, in %, no unit after it.

IN: Fill in the blank: the reported inhibition at 25 µM of CCN(CC)c1ccc(NC(=O)C(CC(=O)O)NCc2ccccc2)cc1 (stereo not shown) [AD4-1167] is ____.
OUT: 30.6

IN: Request: CC(Oc1ccc(C(=O)NCCc2ccccc2)cc1)C(=O)O (stereo not shown) [AD4-1021]
OUT: 43.4

IN: Same question, O=C(O)C[C@H](NCc1cccnc1)C(=O)Nc1ccc(Cl)cc1 [AD4-1025] this time
OUT: 75.7

IN: What do we get for Cc1ccc(Cl)cc1NC(=O)CC(C(=O)O)N1CCNCC1 (stereo not shown) [AD4-1165] ?
OUT: 47.2

IN: Cool, now O=C(NC(=S)Nc1ccc(O)c(C(=O)O)c1)c1ccccc1 [AD4-1123]
OUT: 34.1

IN: Next up: CC1=C(C(=O)Nc2cccc(C)c2)C(c2ccc(O)cc2)NC(=O)N1 (stereo not shown) [AD4-1010]
OUT: 39.4

IN: Input CCNc1nc(N)nc(Oc2ccc(OCc3ccccc3)nn2)n1 [AD4-1176]
OUT: 34

* * *

inhibition at 25 µM values by entry
biological target: EGFR (Rattus norvegicus, UniProt G3V6K6); construct: Receptor source was rat liver membranes; tissue NovaScreen BioSciences; host or cells: rat liver membranes; experiment: Inhibition of [125I]EGF binding to EGFR, radioligand filtration assay (NovaScreen); conditions: inhibition of [125I]EGF binding at 25 μM; rat liver membranes; read-out: EGFR INHIBITION
Write the value in % as a bare number.

>>> quantitative_result("O=C(O)Cn1nnc(-c2ccc(OCc3cccc(C(F)(F)F)c3)cc2)n1")
33.3

IN: Reported inhibition at 25 µM for CN(C1=NC(=O)C(CC(=O)O)S1)c1ccc(O)cc1 (centres unmarked) : what is it?
OUT: 70.9

IN: Continue with CCCC(NC(=O)CCc1c(C)c2ccc(O)cc2oc1=O)C(=O)O (centres unmarked)
OUT: 32.7

IN: What do you get for O=C(O)COc1ccc(-c2nnn(CC(=O)O)n2)cc1 ?
OUT: 31.4

IN: Likewise for O=C(O)CC(NCc1ccccc1)C(=O)Nc1ccc(Cl)cc1 (centres unmarked) ?
OUT: 47.2

IN: Param item: COc1cc(/C=N/NC(=O)c2ccc(O)cc2O)ccc1O
OUT: 30.1

IN: Same question, O=C(N/N=C/c1cc(Cl)ccc1O)c1ccc(O)cc1 this time
OUT: 35

IN: Record: Cn1c(=O)c2c(nc(SCCCO)n2Cc2ccccc2)n(C)c1=O
OUT: 30.2

IN: Try this compound too: Oc1ccc(-c2csc(NCc3ccco3)n2)c(O)c1
OUT: 37.3

IN: Also Oc1ccc(/C=N/N=C/c2ccc(O)cc2O)c(O)c1 ?
OUT: 36.2

IN: Ok, now Cc1cccc(NC(=O)C(CC(=O)O)NCc2ccccc2)c1 (centres unmarked)
OUT: 30.1

IN: Follow-up item: O=C1Nc2ccccc2C1(O)C/C(=N/O)c1ccc2c(c1)OCCO2 (centres unmarked)
OUT: 33.1

IN: Can you check O=C(O)Cn1nnc(-c2ccc(OCc3c(F)cccc3Cl)cc2)n1 next?
OUT: 35.1

IN: Then Cc1ccc(OCCn2c(SCCO)nc3c(N)ncnc32)cc1 ?
OUT: 38

IN: What about Cc1cccc(NC(=O)CC(NCCN2CCOCC2)C(=O)O)c1 (centres unmarked) ?
OUT: 31.2

IN: Repeat with O=C(O)c1ccccc1SC1CC(=O)N(c2ccc(O)cc2)C1=O (centres unmarked)
OUT: 46.7

IN: Entry O=C(CC1SC(Nc2ccc(O)cc2)=NC1=O)Nc1ccc(Br)cc1 (centres unmarked) please
OUT: 36.5
